Values were extracted from the supplement of paper PMC10307832.

System: NCI-H1755
Assay: relative viability (nuclei count vs DMSO), 5 days (fraction); higher = more cells survive
Details: first compound 4 µM
MEASURE: relative viability
Number, no unit, nothing else.

Reference set (3 entries):
INSERT INTO measurements (compound, measured_target, experimental_result) VALUES
  ('Cc1sc2c(c1C)C(c1ccc(Cl)cc1)=N[C@@H](CC(=O)OC(C)(C)C)c1nnc(C)n1-2 [JQ1] + Cc1nc(Nc2ncc(C(=O)Nc3c(C)cccc3Cl)s2)cc(N2CCN(CCO)CC2)n1 [Dasatinib] (partner 0.075 µM)', 'NCI-H1755', 0.2),
  ('Cc1sc2c(c1C)C(c1ccc(Cl)cc1)=N[C@@H](CC(=O)OC(C)(C)C)c1nnc(C)n1-2 [JQ1] + COc1cc2c(Oc3ccc(NC(=O)C4(C(=O)Nc5ccc(F)cc5)CC4)cc3F)ccnc2cc1OCCCN1CCOCC1 [Foretinib] (partner 0.25 µM)', 'NCI-H1755', 0.634),
  ('Cc1sc2c(c1C)C(c1ccc(Cl)cc1)=N[C@@H](CC(=O)OC(C)(C)C)c1nnc(C)n1-2 [JQ1] + C[C@@H](Oc1cc(-c2cnn(C3CCNCC3)c2)cnc1N)c1c(Cl)ccc(F)c1Cl [Crizotinib] (partner 1 µM)', 'NCI-H1755', 0.608);

The reported relative viability of the compound Cc1sc2c(c1C)C(c1ccc(Cl)cc1)=N[C@@H](CC(=O)OC(C)(C)C)c1nnc(C)n1-2 [JQ1] + CS(=O)(=O)N1CCN(Cc2cc3nc(-c4cccc5[nH]ncc45)nc(N4CCOCC4)c3s2)CC1 [Pictilisib] (partner 1 µM) was 0.185

###

Listed here are molecules together with their documented relative viability.
System: NCI-H2405
Assay: relative viability (nuclei count vs DMSO), 5 days (fraction); higher = more cells survive
Details: first compound 0.8 µM
Reply with just the number.

INSERT INTO assay_data (molecule, measure, experimental_result) VALUES
  ('Cc1cnc(-c2cnc(NCCNc3ccc(C#N)cn3)nc2-c2ccc(Cl)cc2Cl)[nH]1 + CCNC(=O)c1noc(-c2cc(C(C)C)c(O)cc2O)c1-c1ccc(CN2CCOCC2)cc1 [Luminespib] (partner 0.01 µM)', 'relative viability', 0.822),
  ('Cc1cnc(-c2cnc(NCCNc3ccc(C#N)cn3)nc2-c2ccc(Cl)cc2Cl)[nH]1 + CC(=O)c1c(C)c2cnc(Nc3ccc(N4CCNCC4)cn3)nc2n(C2CCCC2)c1=O [Palbociclib] (partner 0.5 µM)', 'relative viability', 0.57);

// Cc1cnc(-c2cnc(NCCNc3ccc(C#N)cn3)nc2-c2ccc(Cl)cc2Cl)[nH]1 + COc1cccc2cc(-c3nc([C@H]4CC[C@H](C(=O)O)CC4)n4ncnc(N)c34)[nH]c12 [OSI-027] (partner 0.5 µM) : relative viability value = 0.654

###

System: ABC-1
Test: relative viability (nuclei count vs DMSO), 5 days (fraction); higher = more cells survive
Conditions: first compound 158.11 µM
Measured relative viability by item
# answer = number (no unit)

INSERT INTO measurements (molecule, measure, experimental_result) VALUES
  ('O=C(O)CCCCC(CCSCc1ccccc1)SCc1ccccc1 (stereo not given) [CPI-613] + C[C@@H](Oc1cc(-c2cnn(C3CCNCC3)c2)cnc1N)c1c(Cl)ccc(F)c1Cl [Crizotinib] (partner 1 µM)', 'relative viability', 0.367);

# relative viability of O=C(O)CCCCC(CCSCc1ccccc1)SCc1ccccc1 (stereo not given) [CPI-613] + NC(=O)Nc1cc(-c2cccc(F)c2)sc1C(=O)N[C@H]1CCCNC1 [AZD7762] (partner 0.2 µM) = 0.471

Value of measured relative viability for the entry O=C(O)CCCCC(CCSCc1ccccc1)SCc1ccccc1 (stereo not given) [CPI-613] + CC(C)C[C@H](NC(=O)[C@H](Cc1ccccc1)NC(=O)c1cnccn1)B(O)O [Bortezomib] (partner 0.002 µM) : 0.232

Field relative viability (entry O=C(O)CCCCC(CCSCc1ccccc1)SCc1ccccc1 (stereo not given) [CPI-613] + Nc1ncn([C@H]2C[C@H](O)[C@@H](CO)O2)c(=O)n1 [Decitabine] (partner 2 µM) ) reads 0.698

// O=C(O)CCCCC(CCSCc1ccccc1)SCc1ccccc1 (stereo not given) [CPI-613] + C[C@]1(O)C[C@@H](c2nc(-c3ccc4ccc(-c5ccccc5)nc4c3)c3c(N)nccn32)C1 [Linsitinib] (partner 1 µM) : relative viability value = 0.254

###

Test system: NCI-H647
Assay: relative viability (nuclei count vs DMSO), 5 days (fraction); higher = more cells survive
Conditions: first compound 0.5 µM
MEASURE: relative viability
// no unit, no text: just the number

INSERT INTO results (compound, experimental_result) VALUES
  ('COc1cc2nccc(Oc3ccc(NC(=O)Nc4cc(C)on4)c(Cl)c3)c2cc1OC [Tivozanib] + CC(=O)c1c(C)c2cnc(Nc3ccc(N4CCNCC4)cn3)nc2n(C2CCCC2)c1=O [Palbociclib] (partner 0.5 µM)', 0.35),
  ('COc1cc2nccc(Oc3ccc(NC(=O)Nc4cc(C)on4)c(Cl)c3)c2cc1OC [Tivozanib] + Cc1nc(NC(=O)N2CCC[C@H]2C(N)=O)sc1-c1ccnc(C(C)(C)C(F)(F)F)c1 [Alpelisib] (partner 2 µM)', 0.958);

compound Nc1ccn([C@@H]2O[C@H](CO)[C@@H](O)[C@@H]2O)c(=O)n1 [Cytarabine] + N=C(N)NC(=N)NCCc1ccccc1 [Phenformin] (partner 250 µM) , relative viability observed: 0.0608

Form: compound = COc1cc2nccc(Oc3ccc(NC(=O)Nc4cc(C)on4)c(Cl)c3)c2cc1OC [Tivozanib] + COc1cccc2cc(-c3nc([C@H]4CC[C@H](C(=O)O)CC4)n4ncnc(N)c34)[nH]c12 [OSI-027] (partner 0.5 µM) ; relative viability = 0.658

relative viability measured on Nc1ccn([C@@H]2O[C@H](CO)[C@@H](O)[C@@H]2O)c(=O)n1 [Cytarabine] + CC(=O)c1c(C)c2cnc(Nc3ccc(N4CCNCC4)cn3)nc2n(C2CCCC2)c1=O [Palbociclib] (partner 0.5 µM) = 0.0634

Input COc1cc2nccc(Oc3ccc(NC(=O)Nc4cc(C)on4)c(Cl)c3)c2cc1OC [Tivozanib] + CCNC(=O)c1noc(-c2cc(C(C)C)c(O)cc2O)c1-c1ccc(CN2CCOCC2)cc1 [Luminespib] (partner 0.01 µM) . Output relative viability: 0.148

###

Reported relative viability is given for each of the following molecules.
System: NCI-H647
Test: relative viability (nuclei count vs DMSO), 5 days (fraction); higher = more cells survive
Conditions: first compound 0.02 µM
Write no unit; give the number alone.

INSERT INTO assay_data (molecule, measure, experimental_result) VALUES
  ('CC(=O)O[C@@]12CO[C@@H]1C[C@H](O)[C@@]1(C)C(=O)[C@H](O)C3=C(C)[C@@H](OC(=O)[C@H](O)[C@@H](NC(=O)OC(C)(C)C)c4ccccc4)C[C@@](O)([C@@H](OC(=O)c4ccccc4)[C@H]21)C3(C)C [Docetaxel] + CC(C)C[C@H](NC(=O)[C@H](Cc1ccccc1)NC(=O)c1cnccn1)B(O)O [Bortezomib] (partner 0.002 µM)', 'relative viability', 0.0811);

Consider CC(=O)O[C@@]12CO[C@@H]1C[C@H](O)[C@@]1(C)C(=O)[C@H](O)C3=C(C)[C@@H](OC(=O)[C@H](O)[C@@H](NC(=O)OC(C)(C)C)c4ccccc4)C[C@@](O)([C@@H](OC(=O)c4ccccc4)[C@H]21)C3(C)C [Docetaxel] + CC(=O)Nc1cccc(-n2c(=O)n(C3CC3)c(=O)c3c(Nc4ccc(I)cc4F)n(C)c(=O)c(C)c32)c1 [Trametinib] (partner 0.02 µM) . Its measured relative viability is 0.0816

Noted for CC(=O)O[C@@]12CO[C@@H]1C[C@H](O)[C@@]1(C)C(=O)[C@H](O)C3=C(C)[C@@H](OC(=O)[C@H](O)[C@@H](NC(=O)OC(C)(C)C)c4ccccc4)C[C@@](O)([C@@H](OC(=O)c4ccccc4)[C@H]21)C3(C)C [Docetaxel] + Nc1nc2[nH]cc(CCc3ccc(C(=O)N[C@@H](CCC(=O)O)C(=O)O)cc3)c2c(=O)[nH]1 [Pemetrexed] (partner 0.2 µM) : its relative viability reads 0.0856

###

Tested on: NCI-H1650
Test: relative viability (nuclei count vs DMSO), 5 days (fraction); higher = more cells survive
Details: first compound 0.05 µM
relative viability reference
No unit in the answer, please; the number alone is enough.

Known relative viability results, listed for orientation:
INSERT INTO results (molecule, measured_target, experimental_result) VALUES
  ('Nc1ccn([C@@H]2O[C@H](CO)[C@@H](O)[C@@H]2O)c(=O)n1 [Cytarabine] + COc1cccc2cc(-c3nc([C@H]4CC[C@H](C(=O)O)CC4)n4ncnc(N)c34)[nH]c12 [OSI-027] (partner 0.5 µM)', 'NCI-H1650', 0.354),
  ('Nc1ccn([C@@H]2O[C@H](CO)[C@@H](O)[C@@H]2O)c(=O)n1 [Cytarabine] + Nc1ncn([C@H]2C[C@H](O)[C@@H](CO)O2)c(=O)n1 [Decitabine] (partner 2 µM)', 'NCI-H1650', 0.276),
  ('COc1cc2nccc(Oc3ccc(NC(=O)Nc4cc(C)on4)c(Cl)c3)c2cc1OC [Tivozanib] + CCNC(=O)c1noc(-c2cc(C(C)C)c(O)cc2O)c1-c1ccc(CN2CCOCC2)cc1 [Luminespib] (partner 0.01 µM)', 'NCI-H1650', 0.213);

Lookup result for Nc1ccn([C@@H]2O[C@H](CO)[C@@H](O)[C@@H]2O)c(=O)n1 [Cytarabine] + N=C(N)NC(=N)NCCc1ccccc1 [Phenformin] (partner 250 µM) ; measured relative viability: 0.252
